Where these numbers come from: patent US20120237937A1

method summary: GC-MS quantification of total and 13C-enriched metabolites in paired normal and cancerous lung tissues
assay context: patient #9 (sqC, grade II), normal tissue
Where a name gives a salt, the structure may show the parent alone.
Parameter: metabolite content of lung tissue. Scope: all listed entries.
assay metric: metabolite content of lung tissue (μmole/g dry weight)

- N[C@@H](CC(=O)O)C(=O)O [Total Asp, aspartate]: 1.94
- C[C@H](N)C(=O)O: 5.14
- NC(=O)CC[C@H](N)C(=O)O: 0.74
- O=C(O)CCC(=O)O [Total Succ, succinate]: 0.64
- N[C@@H](CCC(=O)O)C(=O)O [Total Glu, glutamate]: 1.91
- CC(O)C(=O)O (stereo not shown) [lactate]: 19.52
- O=C(O)CC(O)(CC(=O)O)C(=O)O [Total Cit, citrate]: 0.77

---

method summary: GC-MS quantification of total and 13C-enriched metabolites in paired normal and cancerous lung tissues
assay context: patient #6 (sqC, grade II), cancer tissue
Counter-ions that a name gives are not always drawn.
assay metric: metabolite content of lung tissue

* C[C@H](N)C(=O)O | 15.76 μmole/g dry weight
* CC(O)C(=O)O (stereo not shown) [lactate] | 29.55 μmole/g dry weight
* O=C(O)CC(O)(CC(=O)O)C(=O)O [Total Cit, citrate] | 1.32 μmole/g dry weight
* N[C@@H](CCC(=O)O)C(=O)O [Total Glu, glutamate] | 4.80 μmole/g dry weight
* N[C@@H](CC(=O)O)C(=O)O [Total Asp, aspartate] | 4.27 μmole/g dry weight
* NC(=O)CC[C@H](N)C(=O)O | 7.68 μmole/g dry weight
* O=C(O)CCC(=O)O [Total Succ, succinate] | 1.34 μmole/g dry weight
